The measurements presented in this section are drawn from paper PMC6733935.

- target: BN/GRP receptor-positive PC3 human prostate cancer cells (Homo sapiens, UniProt P30550)
- Construct: BN/GRP receptor-positive MDA-MB-231, MCF7, T47D human breast cancer, and PC3 human prostate cancer lines; host or cells: MDA-MB-231, MCF7, T47D (human breast cancer), PC3 (human prostate cancer); intact cells
- test protocol: Saturation binding assay on PC3 cells
- condition label: n = 3-5 experiments, SD < 15%
Numbered stars: 1 amine (or outer) side, 2 acyl side, 3 side chain; on linkers, the order of the positions; unused ones are H or OH. Square brackets hold non-standard residues; d marks the D form. Peptide text beside a SMILES is read from it. * marks the point of attachment. DOTA = O=C(O)CN1CCN(CC(=O)O)CCN(CC(=O)*)CCN(CC(=O)O)CC1; Cha = N[C@@H](CC1CCCCC1)C(=O)O; X1 = O=C(CCC(=O)[*:2])CN[*:1]; 4Abz = Nc1ccc(C(=O)O)cc1; Nle = CCCC[C@H](N)C(=O)O; Ahx = NCCCCCC(=O)O
value kind: Bmax (apparent number of binding sites per cell)

{"compound": "CCCC[C@H](NC(=O)[C@H](Cc1c[nH]cn1)NC(=O)[C@H](CC1CCCCC1)NC(=O)[C@@H](NC(=O)[C@H](C)NC(=O)[C@H](Cc1c[nH]c2ccccc12)NC(=O)[C@H](CCC(N)=O)NC(=O)[C@H](CS)NC(=O)CNC(=O)CNC(=O)CCC(=O)CNC(=O)CN1CCN(CC(=O)O)CCN(CC(=O)O)CCN(CC(=O)O)CC1)C(C)C)C(=O)N[C@@H](CCSC)C(N)=O [^68Ga-DOTA-ALA-BN Tris-, metal not drawn] ({DOTA}-[X1]GGCQWAV[Cha]H[Nle]M-NH2)", "result": "2.63 × 10^5 sites/cell"}
{"compound": "CCCC[C@H](NC(=O)[C@H](Cc1c[nH]cn1)NC(=O)[C@H](CC1CCCCC1)NC(=O)[C@@H](NC(=O)[C@H](C)NC(=O)[C@H](Cc1c[nH]c2ccccc12)NC(=O)[C@H](CCC(N)=O)NC(=O)[C@H](CS)NC(=O)CNC(=O)CNC(=O)CCCCCNC(=O)CN1CCN(CC(=O)O)CCN(CC(=O)O)CCN(CC(=O)O)CC1)C(C)C)C(=O)N[C@@H](CCSC)C(N)=O [^68Ga-DOTA-Ahx-BN Cyclen, metal not drawn] ({DOTA-Ahx}-GGCQWAV[Cha]H[Nle]M-NH2)", "result": "5.29 × 10^5 sites/cell"}
{"compound": "CCCC[C@H](NC(=O)[C@H](Cc1c[nH]cn1)NC(=O)[C@H](CC1CCCCC1)NC(=O)[C@@H](NC(=O)[C@H](C)NC(=O)[C@H](Cc1c[nH]c2ccccc12)NC(=O)[C@H](CCC(N)=O)NC(=O)[C@H](CS)NC(=O)CNC(=O)CNC(=O)CCCCCNC(=O)CN1CCN(CC(=O)O)CCN(CC(=O)O)CCN(CC(=O)O)CC1)C(C)C)C(=O)N[C@@H](CCSC)C(N)=O [^68Ga-DOTA-Ahx-BN Tris-, metal not drawn] ({DOTA-Ahx}-GGCQWAV[Cha]H[Nle]M-NH2)", "result": "4.88 × 10^5 sites/cell"}
{"compound": "CCCC[C@H](NC(=O)[C@H](Cc1c[nH]cn1)NC(=O)[C@H](CC1CCCCC1)NC(=O)[C@@H](NC(=O)[C@H](C)NC(=O)[C@H](Cc1c[nH]c2ccccc12)NC(=O)[C@H](CCC(N)=O)NC(=O)[C@H](CS)NC(=O)CNC(=O)CNC(=O)c1ccc(NC(=O)CN2CCN(CC(=O)O)CCN(CC(=O)O)CCN(CC(=O)O)CC2)cc1)C(C)C)C(=O)N[C@@H](CCSC)C(N)=O [^68Ga-DOTA-Abz-BN Tris-, metal not drawn] ({DOTA-4Abz}-GGCQWAV[Cha]H[Nle]M-NH2)", "result": "5.90 × 10^5 sites/cell"}
{"compound": "CCCC[C@H](NC(=O)[C@H](Cc1c[nH]cn1)NC(=O)[C@H](CC1CCCCC1)NC(=O)[C@@H](NC(=O)[C@H](C)NC(=O)[C@H](Cc1c[nH]c2ccccc12)NC(=O)[C@H](CCC(N)=O)NC(=O)[C@H](CS)NC(=O)CNC(=O)CNC(=O)c1ccc(NC(=O)CN2CCN(CC(=O)O)CCN(CC(=O)O)CCN(CC(=O)O)CC2)cc1)C(C)C)C(=O)N[C@@H](CCSC)C(N)=O [^68Ga-DOTA-Abz-BN Cyclen, metal not drawn] ({DOTA-4Abz}-GGCQWAV[Cha]H[Nle]M-NH2)", "result": "4.30 × 10^5 sites/cell"}

# context switch: different compound, same Bmax (apparent number of binding sites per cell)
Item: CCCC[C@H](NC(=O)[C@H](Cc1c[nH]cn1)NC(=O)[C@H](CC1CCCCC1)NC(=O)[C@@H](NC(=O)[C@H](C)NC(=O)[C@H](Cc1c[nH]c2ccccc12)NC(=O)[C@H](CCC(N)=O)NC(=O)[C@H](CS)NC(=O)CNC(=O)CNC(=O)CCC(=O)CNC(=O)CN1CCN(CC(=O)O)CCN(CC(=O)O)CCN(CC(=O)O)CC1)C(C)C)C(=O)N[C@@H](CCSC)C(N)=O [^68Ga-DOTA-ALA-BN Cyclen, metal not drawn] ({DOTA}-[X1]GGCQWAV[Cha]H[Nle]M-NH2) | System: BN/GRP receptor-positive PC3 human prostate cancer cells (Homo sapiens, UniProt P30550) | Bmax (apparent number of binding sites per cell): 2.12 × 10^5 sites/cell

====

Listed here are molecules together with their documented %ID excreted in Urine.
- test protocol: in vivo
- Parameters: species or system Balb/c mice
- condition label: Balb/c, mouse, iv, 1 h
- Experimental: Approval for the animal protocol used in this study was obtained from the Institutional Animal Care and Use Committee. Animal studies were conducted according to the international regulations governing the safe and proper use of laboratory animals. […] Major organs such as lungs, stomach, spleen, pancreas, intestines, liver, kidneys, etc. were isolated, weighed, and radioactivity in each organs and tissues were measured using a γ-scintillation counter. […]
Numbered stars: 1 amine (or outer) side, 2 acyl side, 3 side chain; on linkers, the order of the positions; unused ones are H or OH. Square brackets hold non-standard residues; d marks the D form. Peptide text beside a SMILES is read from it. * marks the point of attachment. DOTA = O=C(O)CN1CCN(CC(=O)O)CCN(CC(=O)*)CCN(CC(=O)O)CC1; Cha = N[C@@H](CC1CCCCC1)C(=O)O; X1 = O=C(CCC(=O)[*:2])CN[*:1]; 4Abz = Nc1ccc(C(=O)O)cc1; Nle = CCCC[C@H](N)C(=O)O; Ahx = NCCCCCC(=O)O
Write your answer as a measured quantity: the number, then the unit.

{"molecule": "CCCC[C@H](NC(=O)[C@H](Cc1c[nH]cn1)NC(=O)[C@H](CC1CCCCC1)NC(=O)[C@@H](NC(=O)[C@H](C)NC(=O)[C@H](Cc1c[nH]c2ccccc12)NC(=O)[C@H](CCC(N)=O)NC(=O)[C@H](CS)NC(=O)CNC(=O)CNC(=O)CCC(=O)CNC(=O)CN1CCN(CC(=O)O)CCN(CC(=O)O)CCN(CC(=O)O)CC1)C(C)C)C(=O)N[C@@H](CCSC)C(N)=O [^68Ga-DOTA-ALA-BN Tris-, metal not drawn] ({DOTA}-[X1]GGCQWAV[Cha]H[Nle]M-NH2)", "value kind": "%ID excreted in Urine", "result": "71.0 ± 12.45 %ID"}

# %ID excreted in Urine of CCCC[C@H](NC(=O)[C@H](Cc1c[nH]cn1)NC(=O)[C@H](CC1CCCCC1)NC(=O)[C@@H](NC(=O)[C@H](C)NC(=O)[C@H](Cc1c[nH]c2ccccc12)NC(=O)[C@H](CCC(N)=O)NC(=O)[C@H](CS)NC(=O)CNC(=O)CNC(=O)c1ccc(NC(=O)CN2CCN(CC(=O)O)CCN(CC(=O)O)CCN(CC(=O)O)CC2)cc1)C(C)C)C(=O)N[C@@H](CCSC)C(N)=O [^68Ga-DOTA-Abz-BN Cyclen, metal not drawn] ({DOTA-4Abz}-GGCQWAV[Cha]H[Nle]M-NH2) = 70.0 ± 8.60 %ID

# %ID excreted in Urine of CCCC[C@H](NC(=O)[C@H](Cc1c[nH]cn1)NC(=O)[C@H](CC1CCCCC1)NC(=O)[C@@H](NC(=O)[C@H](C)NC(=O)[C@H](Cc1c[nH]c2ccccc12)NC(=O)[C@H](CCC(N)=O)NC(=O)[C@H](CS)NC(=O)CNC(=O)CNC(=O)c1ccc(NC(=O)CN2CCN(CC(=O)O)CCN(CC(=O)O)CCN(CC(=O)O)CC2)cc1)C(C)C)C(=O)N[C@@H](CCSC)C(N)=O [^68Ga-DOTA-Abz-BN Tris-, metal not drawn] ({DOTA-4Abz}-GGCQWAV[Cha]H[Nle]M-NH2) = 43.0 ± 8.70 %ID

# %ID excreted in Urine of CCCC[C@H](NC(=O)[C@H](Cc1c[nH]cn1)NC(=O)[C@H](CC1CCCCC1)NC(=O)[C@@H](NC(=O)[C@H](C)NC(=O)[C@H](Cc1c[nH]c2ccccc12)NC(=O)[C@H](CCC(N)=O)NC(=O)[C@H](CS)NC(=O)CNC(=O)CNC(=O)CCCCCNC(=O)CN1CCN(CC(=O)O)CCN(CC(=O)O)CCN(CC(=O)O)CC1)C(C)C)C(=O)N[C@@H](CCSC)C(N)=O [^68Ga-DOTA-Ahx-BN Tris-, metal not drawn] ({DOTA-Ahx}-GGCQWAV[Cha]H[Nle]M-NH2) = 74.0 ± 8.03 %ID
